The following compounds are shown together with reported Toxicity values.
Test system: Mus musculus
method summary: The compound was tested for acute toxicity and activity is expressed as deaths/5 mice after iv (200 mg/kg) administration.
Type: organism-based
run conditions: in vivo
assay readout: Toxicity

INSERT INTO assay_data (compound, assay_readout, test_value) VALUES
  ('O=C1c2ccccc2C=[N+]([O-])C12CCCC2', 'Toxicity', 0),
  ('CC1(C)C(=O)c2ccccc2C=[N+]1[O-]', 'Toxicity', 0),
  ('[O-][N+]1=Cc2ccccc2C(O)C12CCCC2 (stereo unspecified)', 'Toxicity', 0),
  ('O=C1c2ccccc2C=[N+]([O-])C12CCCCC2', 'Toxicity', 0),
  ('CC(=O)OC1c2ccccc2C=[N+]([O-])C1(C)C (stereo unspecified)', 'Toxicity', 0),
  ('[O-][N+]1=Cc2ccccc2C(O)C12CCCCC2 (stereo unspecified)', 'Toxicity', 0);

----------
Tested on: Mus musculus
method summary: The compound was tested for acute toxicity and activity is expressed as deaths/5 mice after iv (400 mg/kg) administration.
Assay type: organism-based
run conditions: in vivo
assay readout: Toxicity

INSERT INTO assay_data (compound, assay_readout, test_value) VALUES
  ('CC(=O)OC1c2ccccc2C=[N+]([O-])C1(C)C (stereo unspecified)', 'Toxicity', 0),
  ('CC1(C)C(=O)c2ccccc2C=[N+]1[O-]', 'Toxicity', 1),
  ('[O-][N+]1=Cc2ccccc2C(O)C12CCCC2 (stereo unspecified)', 'Toxicity', 0),
  ('O=C1c2ccccc2C=[N+]([O-])C12CCCC2', 'Toxicity', 4),
  ('O=C1c2ccccc2C=[N+]([O-])C12CCCCC2', 'Toxicity', 5),
  ('[O-][N+]1=Cc2ccccc2C(O)C12CCCCC2 (stereo unspecified)', 'Toxicity', 0);

----------
method summary: Lipophilicity expressed as log K'w.
Type: physicochemical
run conditions: reversed-phase HPLC
assay readout: Log k'w

INSERT INTO measurements (compound, assay_readout, test_value) VALUES
  ('CC1(C)Cc2ccccc2C=[N+]1[O-]', 'Log k''w', 1.9),
  ('CC1(C)C(=O)c2ccccc2C=[N+]1[O-]', 'Log k''w', 1.65),
  ('CC1(C)C(O)c2ccccc2C=[N+]1[O-] (stereo not drawn)', 'Log k''w', 0.91),
  ('CC(=O)OC1c2ccccc2C=[N+]([O-])C1(C)C (stereo not drawn)', 'Log k''w', 1.95),
  ('[O-][N+]1=Cc2ccccc2C(O)C12CCCC2 (stereo not drawn)', 'Log k''w', 1.67),
  ('O=C1c2ccccc2C=[N+]([O-])C12CCCC2', 'Log k''w', 2.05),
  ('[O-][N+]1=Cc2ccccc2C(O)C12CCCCC2 (stereo not drawn)', 'Log k''w', 2.1),
  ('O=C1c2ccccc2C=[N+]([O-])C12CCCCC2', 'Log k''w', 2.6);

----------
method summary: Compound was tested for brain permeability at 200 mg/kg i.p. after 30 min
Format: ADME, organism-based
Parameters: dose 200 mg/kg, route intraperitoneal
run conditions: in vivo, ip, 0.5 h
The following molecules are shown together with reported Brain level values.
assay readout: Brain level (µg/g)

INSERT INTO results (molecule, unit_annotation, test_value) VALUES
  ('CC1(C)Cc2ccccc2C=[N+]1[O-]', 'µg/g', 109),
  ('CC1(C)C(O)c2ccccc2C=[N+]1[O-] (configuration not stated)', 'µg/g', 142);

----------
method summary: Compound was tested for brain permeability at 200 mg/kg i.p. after 60 min
Assay type: ADME, organism-based
Design: dose 200 mg/kg, route intraperitoneal
run conditions: in vivo, ip, 1 h
The following compounds are shown together with reported Brain level values.
assay readout: Brain level (µg/g)

INSERT INTO results (compound, assay_readout, unit_annotation, test_value) VALUES
  ('CC1(C)Cc2ccccc2C=[N+]1[O-]', 'Brain level', 'µg/g', 77),
  ('CC1(C)C(O)c2ccccc2C=[N+]1[O-] (configuration not stated)', 'Brain level', 'µg/g', 127);

src = ChEMBL document CHEMBL1129031
